Documented IC50 across a set of compounds
- MEASURED_ON: UniProtKB P23526
- Sequence (P23526 whole entry): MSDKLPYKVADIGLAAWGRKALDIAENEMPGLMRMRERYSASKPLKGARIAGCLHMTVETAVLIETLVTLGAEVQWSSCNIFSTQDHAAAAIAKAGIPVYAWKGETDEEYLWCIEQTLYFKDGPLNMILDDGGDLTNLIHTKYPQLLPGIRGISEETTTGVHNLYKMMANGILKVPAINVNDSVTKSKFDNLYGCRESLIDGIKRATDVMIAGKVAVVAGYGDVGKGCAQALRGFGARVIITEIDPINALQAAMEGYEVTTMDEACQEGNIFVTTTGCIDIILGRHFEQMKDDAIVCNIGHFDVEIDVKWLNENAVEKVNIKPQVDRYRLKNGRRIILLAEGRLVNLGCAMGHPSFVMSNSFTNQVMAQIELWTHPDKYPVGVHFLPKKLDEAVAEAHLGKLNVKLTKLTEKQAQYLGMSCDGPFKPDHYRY
- PROTOCOL_NOTES: SAHH inhibition, IC50 determination with recombinant SAHH (hydrolysis of SAH, Hcy determined with DTNB)
- Type: biochemical
Record the value in nM, omitting the unit from your answer.

1. O=C(OO)c1ccc(Cl)cc1 [Compound 6] : 565
2. On1nnc2ccccc21 [Compound 1] : 1240
3. Fc1ccc(CBr)c(F)c1 [Compound 3] : 913

Reported IC50 of Oc1ccc(Cl)c(O)c1 [Compound 7] : 1110
